# Tgt: Mitogen-activated protein kinase 14 (Homo sapiens)
# Sequence (Q16539 whole entry): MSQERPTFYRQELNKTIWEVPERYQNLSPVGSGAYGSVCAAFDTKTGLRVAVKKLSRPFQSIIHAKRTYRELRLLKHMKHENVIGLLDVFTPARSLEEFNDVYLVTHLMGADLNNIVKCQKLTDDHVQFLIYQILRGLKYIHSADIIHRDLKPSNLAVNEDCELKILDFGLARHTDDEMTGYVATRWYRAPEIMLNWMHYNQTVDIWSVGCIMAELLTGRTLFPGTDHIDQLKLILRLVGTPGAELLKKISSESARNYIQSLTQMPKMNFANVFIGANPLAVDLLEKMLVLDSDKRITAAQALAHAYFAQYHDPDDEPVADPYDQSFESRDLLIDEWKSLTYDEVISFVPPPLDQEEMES
# Measurement protocol: Inhibition of p38alpha in human THP1 cells assessed as suppression of LPS-induced TNFalpha secretion preincubated for 30 mins followed by LPS challenge measured after 2 hrs
Observed property: IC50 (nM)

[[record]]
compound_structure_string = "NC(=O)[C@H](CCC1CCCCC1)NC(=O)[C@H]1CC[C@H](CNC(=O)c2cnn(-c3ccccc3)c2N)CC1"
tgt = "Mitogen-activated protein kinase 14 (Homo sapiens)"
measure_unit = "nM"
quantitative_result = 44

[[record]]
compound_structure_string = "CNC(=O)[C@H](Cc1cccc(C(F)(F)F)c1)NC(=O)c1ccc(CNC(=O)c2cnn(-c3ccccc3)c2N)cc1"
tgt = "Mitogen-activated protein kinase 14 (Homo sapiens)"
measure_unit = "nM"
quantitative_result = 46

